FYI, the data here is from patent US11872202B2.

# reported IC50 at 24 h; entries follow
# assay_method_text: In vitro cytotoxicity, CCK-8 method
# Format: cell-based
# measurement_context: human, HepG2 cells, read-out: median inhibitory concentration (IC50), cytotoxicity

>  <compound>
C=C[C@]1(C)C[C@@H](OC(=O)COC(=O)/C=C/c2cccc(C#N)c2)[C@]2(C)[C@H](C)CC[C@]3(CCC(=O)[C@H]32)[C@@H](C)[C@@H]1O

>  <readout_unit>
µM

>  <comparator>
=

>  <IC50 at 24 h>
78.5

$$$$
>  <compound>
C=C[C@]1(C)C[C@@H](OC(=O)COC(=O)/C=C/c2ccc(OC)cc2)[C@]2(C)[C@H](C)CC[C@]3(CCC(=O)[C@H]32)[C@@H](C)[C@@H]1O

>  <readout_unit>
µM

>  <comparator>
=

>  <IC50 at 24 h>
83.7

$$$$
>  <compound>
C=C[C@]1(C)C[C@@H](OC(=O)CSCCN(CC)CC)[C@]2(C)[C@H](C)CC[C@]3(CCC(=O)[C@H]32)[C@@H](C)[C@@H]1O [Tiamulin, reference compound]

>  <readout_unit>
µM

>  <comparator>
=

>  <IC50 at 24 h>
27.1

$$$$
>  <compound>
C=C[C@]1(C)C[C@@H](OC(=O)COC(=O)/C=C/c2ccc([N+](=O)[O-])cc2)[C@]2(C)[C@H](C)CC[C@]3(CCC(=O)[C@H]32)[C@@H](C)[C@@H]1O

>  <readout_unit>
µM

>  <comparator>
>

>  <IC50 at 24 h>
200

$$$$
>  <compound>
C=C[C@]1(C)C[C@@H](OC(=O)COC(=O)/C=C/c2ccc(N(C)C)cc2)[C@]2(C)[C@H](C)CC[C@]3(CCC(=O)[C@H]32)[C@@H](C)[C@@H]1O

>  <readout_unit>
µM

>  <comparator>
>

>  <IC50 at 24 h>
200

$$$$

====

# Test system: Staphylococcus aureus ATCC29213
# assay_method_text: MIC, micro-broth dilution method
# Format: cell-based
# measurement_context: Staphylococcus aureus ATCC29213; 37° C., 20-22 h; read-out: Minimum inhibitory concentration
# Experimental: The minimum inhibitory concentration (MIC) of pleuromutilin cinnamate easters and their starting materials was tested by a micro-broth dilution method, with retamoline, vornimulin and tiamulin as positive controls. […]
Known MIC of a selection of compounds

>  <structure_as_smiles>
C=C[C@]1(C)C[C@@H](OC(=O)COC(=O)/C=C/c2ccc(OC)cc2)[C@]2(C)[C@H](C)CC[C@]3(CCC(=O)[C@H]32)[C@@H](C)[C@@H]1O

>  <MIC, µg/mL>
8

$$$$
>  <structure_as_smiles>
C=C[C@]1(C)C[C@@H](OC(=O)COC(=O)/C=C/c2ccc(OC)c(OC)c2)[C@]2(C)[C@H](C)CC[C@]3(CCC(=O)[C@H]32)[C@@H](C)[C@@H]1O

>  <MIC, µg/mL>
8

$$$$
>  <structure_as_smiles>
C=C[C@]1(C)C[C@@H](OC(=O)COC(=O)/C=C/c2cccc(C#N)c2)[C@]2(C)[C@H](C)CC[C@]3(CCC(=O)[C@H]32)[C@@H](C)[C@@H]1O

>  <MIC, µg/mL>
8

$$$$
